Collected from the literature: pKi of various compounds toward UniProtKB P00734.
pKi: −log10 of the molar value.
Experimental Endpoint: pKi

(1) COC(=N)NS(=O)(=O)c1ccc(NC(=O)C2CCCN2C(=O)[C@H](Cc2ccccc2)NC(=O)OCc2ccccc2)cc1 (some centres undefined)
(2) O=C(NCc1cccc(-c2cccc(-c3cc4c[nH]ccc-4n3)c2O)c1)[C@@H](O)Cc1ccccc1
(3) O=C(Cn1c(Cl)cnc(NCC(F)(F)c2cccc[n+]2[O-])c1=O)NCc1ccccc1C(F)(F)F
(4) CN(C(=O)[C@H](CC#Cc1cccnc1)NS(=O)(=O)c1ccc2ccccc2c1)C1CCCC1
In: Thanks in advance: please rank these 4 entries by pKi, highest to lowest. I would appreciate it if you listed the labels in the requested order.
Out: 3, 1, 4, 2

* * *

// cross-study collection: Ki for Prothrombin (Homo sapiens, UniProt P00734)
Experimental Endpoint: Ki (nM)

Example entries and their recorded answers appear below.
- Molecule: "N=C(N)c1ccc(CNC(=O)[C@@H]2CCCN2C(=O)[C@H](NS(N)(=O)=O)C(c2ccccc2)c2ccccc2)c(F)c1"
  Measurement Target: "Prothrombin (Homo sapiens, UniProt P00734)"
  Unit Abbreviation: "nM"
  Ki: 0.01
- Molecule: "N=C(N)NCCC[C@H](NS(=O)(=O)c1cccc(C(F)(F)F)c1)C(=O)N1CCNCC1"
  Measurement Target: "Prothrombin (Homo sapiens, UniProt P00734)"
  Unit Abbreviation: "nM"
  Ki: 5600
- Molecule: "COc1ccc(Sc2cccc(C(=O)N3CCC[C@H]3C(=O)N[C@@H](CCCCN)B3O[C@@H]4C[C@@H]5C[C@@H](C5(C)C)[C@]4(C)O3)c2)cc1"
  Measurement Target: "Prothrombin (Homo sapiens, UniProt P00734)"
  Unit Abbreviation: "nM"
  Ki: 0.42
- Molecule: "N=C(N)c1ccc(/C=C2\\CCCC/C(=C/c3ccc(C(N)=O)cc3)C2=O)cc1"
  Measurement Target: "Prothrombin (Homo sapiens, UniProt P00734)"
  Unit Abbreviation: "nM"
  Ki: 350
- Molecule: "Cc1cc(N2CCC(N(C)C(=O)CCS(=O)(=O)c3ccc4cc(Cl)ccc4c3)CC2)ccn1"
  Measurement Target: "Prothrombin (Homo sapiens, UniProt P00734)"
  Unit Abbreviation: "nM"
  Ki: 7500
- Molecule: "CCOC(=O)CN(Cc1ccc(F)cc1)c1ccc2c(c1)N(C)CC(C)(COc1ccc(C(=N)N)cc1)O2 (stereo not drawn)"
  Measurement Target: "Prothrombin (Homo sapiens, UniProt P00734)"
  Unit Abbreviation: "nM"
  Ki: 720
- Molecule: "COC(=O)NCCC1CCN(C(=O)[C@H](Cc2nc3ccccc3s2)NS(=O)(=O)c2cccc3c2NCC(C)(C)C3)CC1"
  Measurement Target: "Prothrombin (Homo sapiens, UniProt P00734)"
  Unit Abbreviation: "nM"
  Ki: 56
- Molecule: "CCOC(=O)CN(Cc1cc(F)cc(F)c1)c1ccc2c(c1)N(C)CC(C)(COc1ccc(C(=N)N)cc1)O2 (stereo not drawn)"
  Measurement Target: "Prothrombin (Homo sapiens, UniProt P00734)"
  Unit Abbreviation: "nM"
  Ki: 950
- Molecule: "NCc1ccc(Cl)cc1CNC(=O)[C@@H]1CCCN1C(=O)C1(O)c2ccccc2-c2cnccc21 (stereo in doubt; form 1)"
  Measurement Target: "Prothrombin (Homo sapiens, UniProt P00734)"
  Unit Abbreviation: "nM"
  Ki: 2
- Molecule: "O=C(Cn1c(Cl)cnc(NCC(F)(F)c2cccc[n+]2[O-])c1=O)NCc1ccccc1Cl"
  Measurement Target: "Prothrombin (Homo sapiens, UniProt P00734)"
  Unit Abbreviation: "nM"
  Ki: 2.5

(I) N=C(N)c1cccc(COC(=O)c2cc3ccccc3n2Cc2cccc(C(=N)N)c2)c1
(II) Cc1ccc(NS(=O)(=O)Cc2ccccc2)c(=O)n1CC(=O)NC[C@@H]1CNC(N)=N[C@@H]1C
(III) Cc1cc(C(=O)Nc2ccc(-c3ccccc3)cc2)n(-c2cccc(C(=N)N)c2)n1
(IV) CCOC(=O)c1csc(C(=O)[C@H](CCCNC(=N)N)NC(=O)[C@@H]2CCCN2C(=O)[C@@H](Cc2ccccc2)NC)n1
In: Please put the entries in order of rising Ki. Would you mind listing the labels in the order requested?
Out: II, IV, III, I
(II: 1.1 nM, IV: 4.5 nM, III: 600 nM, I: 2460 nM)

* * *

// cross-study collection: Ki for Prothrombin (Homo sapiens)
Experimental Endpoint: Ki (nM)

- Compound: "COC(=O)CN(c1ccc2nc(C)n(Cc3ccc4ccc(C(=N)N)cc4c3)c2c1)C1CCN(C(C)=N)CC1"
  Recorded Value: 98

(1) NCc1ccc(Cl)cc1CNC(=O)[C@@H]1CCCN1C(=O)[C@H](N)Cc1ccccc1
(2) Cc1cc(OCC2CCN(C(=N)N)CC2)cc(OS(=O)(=O)c2cccc(C(F)(F)F)c2)c1
(3) O=C(/N=N/c1ccccc1)NNc1ccccc1
(4) CC1(C)C2CC1[C@]1(C)OB([C@H](CCCN=C(N)N)NC(=O)c3ccc(-c4ccccc4)c([N+](=O)[O-])c3)O[C@@H]1C2 (some centres undefined)
(5) CN(CC(=O)N[C@@H](CCCCN)B(O)O)C(=O)c1ccccc1Sc1ccccc1C#N
In: Could you please sort these 5 entries by Ki from high to low? In plain terms: list the labels in the order you were asked to.
Out: 3, 2, 5, 4, 1

* * *

Collected literature values of Ki measured for Prothrombin (Homo sapiens, UniProt P00734).

Examples with their reported Ki follow.
- Compound: "O=C(NC[C@H]1CN(c2ccc(N3CCC(C(=O)O)CC3)cc2)C(=O)O1)c1ccc(Cl)c(-c2noc(=O)[nH]2)c1"
  Experimental Endpoint: "Ki"
  Recorded Value: "> 100 µM"
- Compound: "N[C@@H](C(=O)N1CCC[C@H]1C(=O)NC/C=C/c1c[nH]cn1)C(c1ccccc1)c1ccccc1"
  Experimental Endpoint: "Ki"
  Recorded Value: "0.002 µM"
- Compound: "Cc1sc(C(=O)Nc2ccc(Cl)cc2C(=O)Nc2ccc(Cl)cc2)c(Cl)c1CN1CCN(C)CC1"
  Experimental Endpoint: "Ki"
  Recorded Value: "4.4 µM"
- Compound: "N=C(N)c1ccc(Oc2ccc(C(=O)N3CCC(CCN)CC3)c(Oc3ccc(C(=N)N)cc3)n2)cc1"
  Experimental Endpoint: "Ki"
  Recorded Value: "> 2.5 µM"
- Compound: "N=C(N)c1cccc(C[C@H](NS(=O)(=O)c2cccc(C3CCC(N)=NC3)c2)C(=O)N2CCC(CCN)CC2)c1 (stereo partly drawn)"
  Experimental Endpoint: "Ki"
  Recorded Value: "0.52 µM"

In: Give reported Ki value for N=C(N)c1ccc(N2CCCCN(C3CCN(Cc4ccccc4)CC3)C2=O)cc1
Out: > 21 µM

In: Could you please provide reported Ki for N=C(N)c1cccc(CN2CC[C@H](NS(=O)(=O)c3ccc4ccncc4c3)C2=O)c1 ? Thanks!
Out: > 4 µM

In: State its Ki: O=C(Nc1ccc(Cl)cc1)c1cc(Cl)c(F)cc1NC(=O)c1sc2ccccc2c1Cl
Out: > 5 µM

* * *

Here, compounds appear alongside Ki reported for Prothrombin (Homo sapiens, UniProt P00734) in the literature.
Experimental Endpoint: Ki (nM)

- Compound: "CC(C)CNc1nc(Cl)c2n(c1=O)[C@H](C(=O)NCc1ccc(C(=N)N)cc1)CC2(C)C"
  Unit Abbreviation: "nM"
  Ki: 220

(a) CC(C)[C@@H](N)C(=O)N1CCC[C@H]1C(=O)NCc1ccc(C(=N)N)cc1
(b) N=C(N)N1CCC(OCC[C@@H]2CCCCN2C(=O)[C@H](CC(=O)O)NC2CCCCCC2)CC1
(c) NCc1ccc(Cl)cc1CNC(=O)CNC(=O)C(CCc1cccc[n+]1[O-])NC(=O)CC(=O)O (stereo not given)
In: Sort (3 compounds) by Ki: min first. Answer format: the labels, ordered as requested.
Out: b, a, c
(b: 1.1 nM, a: 40 nM, c: 140000 nM)

* * *

The entries that follow carry Ki values tested on Prothrombin (Homo sapiens, UniProt P00734), drawn from several published reports.
Experimental Endpoint: Ki (µM)

- Compound: "N=C(N)N1CCCC(CNC(=O)C[C@H](NS(=O)(=O)c2ccc3ccccc3c2)C(=O)N2CCOCC2)C1 (stereo not given in full)"
  Experimental Endpoint: "Ki"
  Unit Abbreviation: "µM"
  Recorded Value: 0.019

(P) N=C(N)c1ccc(Oc2cc(Oc3ccc(C(=N)N)cc3)cc(C(=O)N3CCC4CCCCC4C3)c2)cc1 (stereo not given)
(Q) COc1ccc(-n2nc(C(F)(F)F)c3c2C(=O)N(c2ccc(N4CCCCC4)cc2)CC3)cc1
In: Name the one with the greater Ki value, either P or Q as given. Your answer should be the label attached to the chosen record.
Out: Q

* * *

Collected literature values of Ki measured for Prothrombin (Homo sapiens, UniProt P00734).
Experimental Endpoint: Ki (µM)

- Compound: "Cc1ccc(S(=O)(=O)NN=C(N)N)cc1"
  Ki [µM]: 0.27
- Compound: "CO[C@H](COS(=O)(=O)[O-])C(=O)N[C@H](C(=O)N1[C@H](C(=O)NCCC2=CC[N+](=C(N)N)C2)C[C@@H]2C[C@H](O)[C@@H](O)C[C@@H]21)C(C)C"
  Ki [µM]: 0.55
- Compound: "O=C([C@H](Cc1ccc(F)cc1)NS(=O)(=O)c1cnccc1N[C@H](CO)Cc1ccccc1)N1CCC(CCF)CC1"
  Ki [µM]: 0.065
- Compound: "COc1ccc(C[C@@H](CO)Nc2ccncc2S(=O)(=O)N[C@@H](Cc2ccc(N)cc2)C(=O)N2CCC(CCF)CC2)cc1"
  Ki [µM]: 0.019
- Compound: "CO[C@H]1C[C@@](O)(Cc2ccccc2)C(=O)N2[C@H](C(=O)NCc3ccc(C(=N)N)cc3)CC[C@@H]12"
  Ki [µM]: 0.125

(a) Nc1ccc(CNC(=O)[C@@H]2CCCN2C(=O)[C@@H](Cc2ccc(Cl)c(Cl)c2)NS(=O)(=O)Cc2ccccc2)cn1
(b) CN(C)c1cccc(Oc2cc(C(=O)O)cc(Oc3cc(C(=N)N)ccc3O)n2)c1
(c) CN(C)c1cccc2c(S(=O)(=O)NC(CCCN=C(N)N)C(=O)N3CCCCC3)cccc12 (stereo not drawn)
(d) O=C(Cn1ccnc(NCC(F)(F)c2ccccn2)c1=O)NCc1ccccc1-n1cncn1
(e) CCOc1ccccc1CNC(=O)Cn1c(Cl)cnc(NCC(F)(F)c2cccc[n+]2[O-])c1=O
In: Ranking field: Ki; order: falling. # format: label list in the order the request specifies
Out: b, c, d, e, a

(A) N=C(N)c1ccc(CC(=O)CN2CCCC[C@H](NS(=O)(=O)c3ccccc3)C2=O)cc1
(B) N=C(N)c1ccc(O)c(CN2CC[C@H](NS(=O)(=O)c3ccc(-c4ccon4)s3)C2=O)c1
In: API: POST /compare with A and B ; response names the item with higher Ki. Use the label to indicate which entry you chose.
Out: B
(B: 2.22 µM, A: 0.0194 µM)
